We begin with a simple list: items and their reported YAP1 (% UTC).
test system: Yap1 mRNA; assay: Antisense inhibition of human Yap1 in A-431 cells by cEt gapmers, single dose (Example 3, RTS36584); type: cell-based; details: Table 35; Yap1 mRNA as percent of untreated control; 3-10-3 cEt gapmers targeting SEQ ID NO: 1 and 2; single dose
Strand notation (5' to 3'): a small letter for the sugar, then the base; units joined by * are phosphorothioate-linked, units joined directly phosphodiester-linked; [ ] holds rarer units or linkages, { } end groups; capitals alone tell only the bases. k = constrained ethyl (cEt); [5mC] = 5-methylcytosine; d = 2'-deoxy (DNA)
Give just the numeric value; % UTC need not be written.

Notebook: 1075189 (kG*k[5mC]*kT*dA*dA*dT*dA*dG*dT*d[5mC]*dA*d[5mC]*dT*kG*kT*kT; antisense) [compound 1075189] , YAP1 (% UTC) read as 11

Notebook: 1074677 (antisense k[5mC]*kT*kA*d[5mC]*dT*dG*dG*d[5mC]*dA*dA*dA*dT*dT*kA*kT*kA) [compound 1074677] , YAP1 (% UTC) read as 22

###

system: Yap1 mRNA; assay: Antisense inhibition of human Yap1 in A-431 cells by cEt gapmers, single dose (Example 3, RTS36584); assay type: cell-based; settings: Table 35; Yap1 mRNA as percent of untreated control; 3-10-3 cEt gapmers targeting SEQ ID NO: 1 and 2; single dose
Strand notation (5' to 3'): a small letter for the sugar, then the base; units joined by * are phosphorothioate-linked, units joined directly phosphodiester-linked; [ ] holds rarer units or linkages, { } end groups; capitals alone tell only the bases. k = constrained ethyl (cEt); [5mC] = 5-methylcytosine; d = 2'-deoxy (DNA)
We begin with a simple list: items and their reported YAP1 (% UTC).
Answer with the figure and its unit, nothing else.

Examples from the recorded data:
Substance: 1076405 (antisense kT*kT*kA*dT*dT*dT*dA*dA*dG*dA*d[5mC]*d[5mC]*dT*kG*kG*kT) [compound 1076405]
Reading: 12 % UTC
//
Substance: 1074581 (DNA kA*kA*k[5mC]*d[5mC]*dA*d[5mC]*dT*dA*dT*dA*dA*dA*dG*k[5mC]*kT*kT; antisense) [compound 1074581]
Reading: 18 % UTC
//
Substance: 1074485 (kT*kT*k[5mC]*dA*d[5mC]*dT*dA*dA*dT*dA*dT*dG*dG*kT*k[5mC]*kA; antisense) [compound 1074485]
Reading: 4 % UTC
//
Substance: 1074869 (kA*kG*kT*dA*d[5mC]*d[5mC]*dT*dA*dA*d[5mC]*dA*dT*dA*kT*kG*kA; antisense) [compound 1074869]
Reading: 31 % UTC

# value of YAP1 (% UTC), Yap1 mRNA, item 1075637 (antisense k[5mC]*k[5mC]*kA*d[5mC]*dA*dA*d[5mC]*d[5mC]*dT*dG*dT*d[5mC]*dA*kA*kT*kA) [compound 1075637] = 100 % UTC

###

We begin with a simple list: items and their reported YAP1 (% UTC).
system: Yap1 mRNA; experiment: Antisense inhibition of human Yap1 in A-431 cells by cEt gapmers, single dose (Example 3, RTS36584); assay type: cell-based; conditions: Table 34; Yap1 mRNA as percent of untreated control; 3-10-3 cEt gapmers targeting SEQ ID NO: 1 and 2; single dose
Strand notation (5' to 3'): a small letter for the sugar, then the base; units joined by * are phosphorothioate-linked, units joined directly phosphodiester-linked; [ ] holds rarer units or linkages, { } end groups; capitals alone tell only the bases. k = constrained ethyl (cEt); [5mC] = 5-methylcytosine; d = 2'-deoxy (DNA)
Give just the numeric value; % UTC need not be written.

Substance: 1074900 (antisense kA*kT*kT*dA*dA*d[5mC]*dT*dT*dT*dT*dG*dG*dG*k[5mC]*kA*kA) [compound 1074900]
Target Entity: Yap1 mRNA
Measurement Name: YAP1 (% UTC)
Reading: 40
//
Substance: 1076084 (k[5mC]*kA*kT*d[5mC]*dA*dA*dT*dA*dG*dA*dG*dA*dG*kT*k[5mC]*kG; antisense) [compound 1076084]
Target Entity: Yap1 mRNA
Measurement Name: YAP1 (% UTC)
Reading: 7

Then this substance:
Notebook: 1075220 (kA*kA*kT*dT*dT*dT*dA*dA*d[5mC]*dT*dG*dT*dG*kA*k[5mC]*k[5mC]; antisense) [compound 1075220] , YAP1 (% UTC) read as 24

Data credit: patent US11214803B2
